- MEASUREMENT_NOTES: Prodrug assay: plasma concentrations of prodrugs and demethylated parents after cassette dosing, LC-MS
- Format: in vivo, C57 Bl/6 mice
- MEASUREMENT_CONTEXT: C57 Bl/6, mouse, intravenous, i.v. cassette of prodrugs, nominal 1 mg/kg, solution, 0.5 h, read-out: Parent (demethylated compound) Conc. in plasma after prodrug dosing
QUANTITY_MEASURED: concentration at 0.5 h (nM)
Give just the numeric value; nM need not be written.

Below, each entry is followed by its recorded concentration at 0.5 h result.
1. O=S(=O)(Cc1ccc(Cl)c(Cl)c1)Nc1ncc(Br)nc1O	320
2. O=S(=O)(Cc1cc(Cl)cc(Cl)c1)Nc1ncc(Cl)cc1O	5

In the following, a different compound is considered.
Give the reported concentration at 0.5 h for this compound. `O=S(=O)(Nc1cnc(Cl)cc1O)c1cc(Cl)sc1Cl` 200

###

- TEST_SYSTEM: biotinylated human S100A9 : rhRAGE-Fc interaction (Homo sapiens (Human), UniProt P06702)
- Sequence (P06702 whole entry): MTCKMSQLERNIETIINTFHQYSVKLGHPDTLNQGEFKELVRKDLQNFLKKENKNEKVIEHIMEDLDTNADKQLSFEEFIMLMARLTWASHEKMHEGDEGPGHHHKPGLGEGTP
- MEASUREMENT_NOTES: AlphaScreen inhibition assay, Biot-hS100A9:hRAGE-Fc (S100A9-RAGE inhibition assay)
QUANTITY_MEASURED: IC50

Below, each entry is followed by its recorded IC50 result.
1) O=S(=O)(Nc1nc(Cl)ncc1O)c1ccc(Cl)c(Cl)c1	< 1000 nM
2) CCSc1cc(Cl)cc(CS(=O)(=O)Nc2ccc(Cl)nc2O)c1	< 1000 nM
3) O=S(=O)(Nc1cncc(Cl)c1O)c1cc(Cl)cc(Cl)c1	2100 nM
4) CCS(=O)(=O)c1ccc(NS(=O)(=O)Cc2cc(Cl)cc(Cl)c2)c(O)n1	< 1000 nM

Give the reported IC50 for this compound. `O=S(=O)(Cc1cc(Cl)cc(Cl)c1)Nc1nc(C(F)(F)F)ncc1O` < 1000 nM

###

- TEST_SYSTEM: biotinylated human S100A9 : rhRAGE-Fc interaction (Homo sapiens (Human))
- MEASUREMENT_NOTES: AlphaScreen inhibition assay, Biot-hS100A9:hRAGE-Fc (S100A9-RAGE inhibition assay)
QUANTITY_MEASURED: IC50 (nM)
Give just the numeric value; nM need not be written.

Below, each entry is followed by its recorded IC50 result.
1) O=S(=O)(Cc1cc(Cl)cc(Cl)c1)Nc1cnc(Cl)nc1O [Example 107]	4000
2) O=S(=O)(Cc1cc(Cl)cc(Cl)c1)Nc1nnc(Cl)cc1O [Example 36]	100
3) COc1ncc(S(=O)(=O)Nc2cnccc2O)cc1Br [Example 62]	4400

In the following, a different compound is considered.
Give the reported IC50 for this compound. O=S(=O)(Nc1cnc(Cl)cc1O)c1cc(Cl)sc1Cl [Example 73] 1200

###

Measured IC50 of individual entries
- TEST_SYSTEM: biotinylated human S100A9 : rhRAGE-Fc interaction (Homo sapiens (Human), UniProt P06702)
- MEASUREMENT_NOTES: AlphaScreen inhibition assay, Biot-hS100A9:hRAGE-Fc (S100A9-RAGE inhibition assay)
Give just the numeric value; nM need not be written.

Below, each entry is followed by its recorded IC50 result.
1. CS(=O)(=O)c1cnc(NS(=O)(=O)c2cc(Cl)cc(Cl)c2)c(O)n1 [Example 159]	1800
2. O=S(=O)(Nc1nnc(Cl)cc1O)c1cc(Cl)sc1Cl [Example 113]	2000
3. O=S(=O)(Cc1cc(Cl)cc(Cl)c1)Nc1ncc(Cl)cc1O [Example 9]	120
4. N#Cc1cnc(NS(=O)(=O)Cc2cc(Cl)cc(Cl)c2)c(O)c1 [Example 189]	120
5. N#Cc1nc(NS(=O)(=O)Cc2cc(Cl)cc(Cl)c2)c(O)cc1Cl [Example 130]	390

Give the reported IC50 for this compound. CCN(CC)C(=O)c1cc(Cl)cc(CS(=O)(=O)Nc2nnc(Cl)cc2O)c1 [Example 161] 5100

Give the reported IC50 for this compound. O=S(=O)(Nc1cc(Cl)cnc1O)c1cc(Cl)sc1Cl [Example 74] 2600

Give the reported IC50 for this compound. O=S(=O)(Nc1ncc(Cl)cc1O)c1cncc(Br)c1 [Example 40] 3000

Give the reported IC50 for this compound. O=S(=O)(Cc1cc(Cl)cc(Cl)c1)Nc1cncc(Br)c1O [Example 97] 3800

###

Measured concentration at 1 h of individual entries
- MEASUREMENT_NOTES: Prodrug assay: plasma concentrations of prodrugs and demethylated parents after cassette dosing, LC-MS
- Assay type: in vivo, C57 Bl/6 mice
- MEASUREMENT_CONTEXT: C57 Bl/6, mouse, intravenous, i.v. cassette of prodrugs, nominal 1 mg/kg, solution, 1 h, read-out: Parent (demethylated compound) Conc. in plasma after prodrug dosing
Give just the numeric value; nM need not be written.

1. O=S(=O)(Cc1cc(Cl)cc(Cl)c1)Nc1ncc(Cl)cc1O	3
2. O=S(=O)(Nc1cnc(Cl)cc1O)c1cc(Cl)sc1Cl	190

In the following, a different compound is considered.
Give the reported concentration at 1 h for this compound. `O=S(=O)(Cc1ccc(Cl)c(Cl)c1)Nc1ncc(Br)nc1O` 320

###

- MEASUREMENT_NOTES: Prodrug assay: plasma concentrations of prodrugs and demethylated parents after cassette dosing, LC-MS
- Format: in vivo, C57 Bl/6 mice
- MEASUREMENT_CONTEXT: C57 Bl/6, mouse, intravenous, i.v. cassette of prodrugs, nominal 1 mg/kg, solution, 4 h, read-out: Parent (demethylated compound) Conc. in plasma after prodrug dosing
Measured concentration at 4 h of individual entries
Give just the numeric value; nM need not be written.

Below, each entry is followed by its recorded concentration at 4 h result.
1. O=S(=O)(Cc1ccc(Cl)c(Cl)c1)Nc1ncc(Br)nc1O	210
2. O=S(=O)(Cc1cc(Cl)cc(Cl)c1)Nc1ncc(Cl)cc1O	4

In the following, a different molecule is considered.
Give the reported concentration at 4 h for this molecule. `O=S(=O)(Nc1cnc(Cl)cc1O)c1cc(Cl)sc1Cl` 180

###

- MEASUREMENT_NOTES: Prodrug assay: plasma concentrations of prodrugs and demethylated parents after cassette dosing, LC-MS
- Type: in vivo, C57 Bl/6 mice
- MEASUREMENT_CONTEXT: C57 Bl/6, mouse, oral, p.o. cassette of prodrugs, nominal 5 mg/kg, solution, 7 h, read-out: Parent (demethylated compound) Conc. in plasma after prodrug dosing
- Procedure: ABR-239313, 239470 and 239749 were administered to seven C57 Bl/6 mice as a cassette formulation either intravenously (4 animals, nominal 1 mg/kg) or per oral (3 animals, nominal 5 mg/kg). […] The plasma as well as the formulation samples were analyzed with respect to the concentration of ABR-239313, 239470, 239749 and the corresponding demethylated compounds, i.e. Examples 9, 75 and 73 (ABR-239247, 239417 and 239167) by means of LC-MS. […]
QUANTITY_MEASURED: concentration at 7 h
Number first, unit second: that is the form wanted.

Below, each entry is followed by its recorded concentration at 7 h result.
1. O=S(=O)(Nc1cnc(Cl)cc1O)c1cc(Cl)sc1Cl	780 nM
2. O=S(=O)(Cc1cc(Cl)cc(Cl)c1)Nc1ncc(Cl)cc1O	19 nM

In the following, a different molecule is considered.
Give the reported concentration at 7 h for this molecule. `O=S(=O)(Cc1ccc(Cl)c(Cl)c1)Nc1ncc(Br)nc1O` 1100 nM

###

- TEST_SYSTEM: biotinylated human S100A9 : rhRAGE-Fc interaction (Homo sapiens (Human), UniProt P06702)
- MEASUREMENT_NOTES: AlphaScreen inhibition assay, Biot-hS100A9:hRAGE-Fc (S100A9-RAGE inhibition assay)
- Assay type: binding
pIC50: −log10 of the molar value.
Label rule, in plain words: pIC50 of 6 and up is true, under 6 is false.

1) O=S(=O)(Cc1ccc(Cl)c(Cl)c1)Nc1ncc(Br)nc1O [Example 75]	true

hey, is pIC50 for this one >= 6? CCS(=O)(=O)c1cc(O)c(NS(=O)(=O)Cc2cc(Cl)cc(Cl)c2)nn1 [Example 111] true

hey, is pIC50 for this one >= 6? O=S(=O)(Cc1cc(Cl)cc(Cl)c1)Nc1nc(Cl)ncc1O [Example 143] true

hey, is pIC50 for this one >= 6? COc1ncc(S(=O)(=O)Nc2cnc(C(F)(F)F)cc2O)cc1Br [Example 137] false

###

- MEASUREMENT_NOTES: Prodrug assay: plasma concentrations of prodrugs and demethylated parents after cassette dosing, LC-MS
- Type: in vivo, C57 Bl/6 mice
- MEASUREMENT_CONTEXT: C57 Bl/6, mouse, intravenous, i.v. cassette of prodrugs, nominal 1 mg/kg, solution, 2 h, read-out: Parent (demethylated compound) Conc. in plasma after prodrug dosing
Measured concentration at 2 h of individual entries
Give just the numeric value; nM need not be written.

1) O=S(=O)(Nc1cnc(Cl)cc1O)c1cc(Cl)sc1Cl [Example 73]	210

Give the reported concentration at 2 h for this molecule. O=S(=O)(Cc1cc(Cl)cc(Cl)c1)Nc1ncc(Cl)cc1O [Example 9] 6

Give the reported concentration at 2 h for this molecule. O=S(=O)(Cc1ccc(Cl)c(Cl)c1)Nc1ncc(Br)nc1O [Example 75] 320
